# System: Trypanosoma brucei brucei
# protocolNotes: Antitrypanosomal activity against TbAt1-deficient bloodstraem form of Trypanosoma brucei brucei 427 (BS221) after 72 hrs by alamar blue assay
# Type: functional, organism-based
recordedMetric: EC50 (µM)
The response must be a number in µM with no trailing unit.

Name the recorded EC50 of the item OCCCCCCCCCCCCCc1ccc[n+](CCCCCCCCCCCCCc2ccc[n+](CCCCCCCCCCCCCc3cccnc3)c2)c1 in your answer.
0.27

Name the recorded EC50 of the item OCCCCCCCCCCCCCc1ccc[n+](CCCCCCCCCCCCCc2ccc[n+](CCCCCCCCCCCCCc3ccc[n+](CCCCCCCCCCCCCc4cccnc4)c3)c2)c1 in your answer.
0.41

Name the recorded EC50 of the item CCCC[n+]1cccc(CCCCCCCCCCCCCI)c1 in your answer.
0.063

Name the recorded EC50 of the item COc1ccc(C[n+]2cccc(CCCCCCCCCCCCCO)c2)cc1 in your answer.
0.084

Name the recorded EC50 of the item c1cc2c[n+](c1)CCCCCCCCCCCCCc1ccc[n+](c1)CCCCCCCCCCCCCc1ccc[n+](c1)CCCCCCCCCCCCC2 in your answer.
0.49
